// SARS-CoV-2 3CLpro (Severe acute respiratory syndrome coronavirus 2) IC50 records

- compound-smiles: "O=C(Cn1ccc2ccccc21)N(Cc1ccsc1)c1ccc(-c2ccccc2)cc1"
  IC50: "> 100 µM"
- compound-smiles: "O=C(Cn1nnc2ccccc21)N(Cc1ccc(-c2ccccc2)cc1)Cc1ccsc1"
  IC50: "> 100 µM"

Moving on to another compound below.
Req: Annotate the compound "O=C(Cn1nnc2ccccc21)N(Cc1ccc(-c2ccccn2)cc1)Cc1ccsc1" with its measured IC50.
Resp: 50 to 100 µM
